The following compounds are listed with their measured melting point values.

Check out these entries, answers already filled in.
compound: COc1cccc(-n2[nH]c(Cc3c(C)n(C(=O)c4ccc(Cl)cc4)c4ccc(OC)cc34)cc2=O)c1
melting point: 102 to 104 °C
--
compound: CCOC(=O)c1cc2c(cn1)[nH]c1cccc(Oc3ncccn3)c12
melting point: 273 to 275 °C
--
compound: CC1(C)OC(=O)c2ccc(C(c3c(F)cc([N+](=O)[O-])cc3F)n3cncn3)cc21 (stereo not given)
melting point: 163 to 164 °C
--
compound: CCOC(=O)C1=CCC2(CC1S(=O)(=O)Nc1ccc(F)cc1Cl)OCCO2 (stereo not given)
melting point: 120 to 122 °C

State the recorded melting point for this entry: CCOC(Cc1ccc(OCCN2CCOc3ccccc32)cc1)C(=O)NCc1ccccc1 (stereo not given)
94 to 96 °C
